Catalogue of IC50 readings, one per entry.
Molecular target: recombinant human GST-Syk (Homo sapiens (Human), UniProt P43405)
Assay: Homogeneous Time-Resolved Fluorescence (HTRF) assay for the recombinant human Syk enzyme
Settings: recombinant human GST-Syk 5 pM, ATP 25 μM, read-out: rhSyk IC50
Method: Syk inhibition may be determined using the following assay protocol: Homogeneous Time-Resolved Fluorescence (HTRF) Assay for the Recombinant Human Syk Enzyme: A recombinant GST-hSyk fusion protein was used to measure potency of compounds to inhibit human Syk activity. […] To initiate the reaction the biotinylated substrate peptide (250 nM final concentration) that contains the phosphorylation site for Syk was added with magnesium (5 mM final concentration) and ATP (25 μM final concentration). […]
Answer with a number only, understood to be in nM.

Some compounds with recorded IC50:
compound="CCCCCOC(=O)[C@H]1CC[C@H](C(C)(O)c2ccc(-c3cc(C)cc(Nc4cc(C(F)F)ccn4)n3)cn2)CC1 (single isomer, unassigned) [Example 19-7]" study_system="recombinant human GST-Syk (Homo sapiens (Human), UniProt P43405)" unit_spec=nM assay_result=100
compound="Cc1cc(Nc2cc(C(F)(F)F)ccn2)nc(-c2ccc(NC3CCN(C(=O)c4cccc5ccccc45)CC3)nc2)c1 [Example 4-59]" study_system="recombinant human GST-Syk (Homo sapiens (Human), UniProt P43405)" unit_spec=nM assay_result=61

Then there is this compound:
Value wanted: IC50 (recombinant human GST-Syk (Homo sapiens (Human), UniProt P43405)) of entry Cc1cc(Nc2cc(C(F)(F)F)ccn2)nc(-c2ccc(N3CCC(C(=O)N4CCC(C(=O)O)CC4)CC3)nc2)c1 [Example 2-26] 3
